# Tested on: Plasmodium falciparum
# Assay Notes: GSK_TCMDC: Inhibition of Plasmodium falciparum Dd2 in whole red blood cells, using parasite LDH activity as an index of growth. Test compounds present at 2uM
# Assay type: functional
Strictly below 80% in Inhibition: 1.0. Otherwise: 0.0.

>>> df
                                    molecule  answer_label
 0  O=C(Nc1ccc(Oc2ccccc2)cc1)N[C@H]1CCN(Cc2ccc(OCCCN3CCCCC3)cc2)C1           1.0
 1  Br.CC1(C)NC(N)=NC(=N)N1OCCOc1ccc(Cc2ccccc2)cc1           1.0
 2  CCN1CCN(Cc2ccc3nc(-c4cc(C)n(Cc5cc(Cl)ccc5OCc5ccccc5)n4)[nH]c3c2)CC1.Cl           0.0
 3  Cc1cccc2nc(-c3cccc(-c4ccc(NC(=O)Cc5ccon5)cc4)c3)[nH]c12           1.0
 4  COc1ccccc1C1CCN(C2CCC(NC(=O)/C=C/c3cccc(Cl)c3F)CC2)CC1 (stereo not drawn)           1.0
 5  CN1CCCN(Cc2cccc(-c3cccc(NC(=O)c4ccc(Cl)cc4)c3)c2)CC1.O=C(O)C(F)(F)F           1.0
 6  COc1ccc2nccc(N/N=C/c3cccc([N+](=O)[O-])c3)c2c1           0.0
 7           CC(=NNC(S)=NCCc1ccccc1)c1ccccn1           0.0
 8           CC(C)Cc1nc2nc(N)nc(N)c2cc1C(C)C           1.0
 9  Cc1ccc(C)c(NC(=O)Nc2ccc(C)c(-c3ccc(C(=O)Nc4ccncc4)cc3)c2)c1           1.0
10  CN(C)CCOc1ccc2c(c1)CN(C)CC2c1ccccc1.Cl (stereo not drawn)           1.0
11  CC(=O)Nc1nc(C(=O)Nc2ccc(-c3cccc(-c4nc5ccccc5[nH]4)c3)cc2)cs1           0.0
12  Cc1ccc(C(=O)Nc2ccc(Nc3ccnc4cc(-c5ccccn5)ccc34)cc2O)cc1.Cl           0.0
13  COc1ccc(NC(=O)/C=C/c2ccccc2Cl)cc1OCCN1CCC(NCc2cccnc2)CC1           0.0
14  CN1CCN(c2nsc3ccc(-c4ccc(NC(=O)Nc5ccccc5)cc4)cc23)CC1.O=C(O)C(F)(F)F           0.0
15  O=C(C=Cc1ccc(Cl)c(Cl)c1)NCCCCCN1CCC(CCNS(=O)(=O)c2ccc(F)cc2)CC1           1.0
16  Cc1cc(C(F)(F)F)nn1-c1ccc(NC(=O)c2ccco2)cc1           0.0
17  CC(Nc1ccc2c(c1)OCCO2)C(=O)Nc1cc(C(F)(F)F)ccc1N1CCOCC1 (stereo not drawn)           1.0
18  Cc1cccc2nc(-c3cccc(-c4cccc(NC(=O)NCc5ccccc5)c4)c3)[nH]c12           1.0
19  C=CCOC(=O)N1CCC(CNCc2ccc(-c3ccc(-c4nc5ccccc5[nH]4)s3)cc2)C1.O=C(O)C(F)(F)F (stereo not drawn)           1.0
20  O=C(N[C@@H](Cc1ccccc1)C(=O)NC1CCCc2ccccc21)c1ccc(O)c(-c2cccc(C(F)(F)F)c2)c1 (stereo partly drawn)           1.0
21  CC(C)N1CCC(NC(=O)N2CCCN(c3ncnc4cc(-c5ccccc5)sc34)CC2)CC1.O=C(O)C(F)(F)F           1.0
22  Br.CC1(C)NC(N)=NC(=N)N1OCCCc1c(Cl)cccc1Cl           0.0
23  Cl.c1ccc(COc2ccc(Nc3ncnc4cnc(-c5ccc(CN6CCCCC6)o5)cc34)cc2)cc1           1.0
24         Cl.Oc1ccc(Cc2ccccc2)cc1CNC1CCCCC1           0.0
25  c1ccc2c(CNc3nc(NCC4CCCCC4)nc4[nH]cnc34)cccc2c1           1.0
26  CNC(=O)Cc1ccc(C(=O)Nc2cccc(-c3cccc(-c4nc5cccc(C)c5[nH]4)c3)c2)cc1           1.0
27  CCOc1c(CNCCCNc2nc3ccccc3[nH]2)cc(Br)cc1OC.Cl           1.0
28  Cl.OC(CN1CCN(c2cccc(Cl)c2)CC1)C(c1ccccc1)c1ccccc1 (stereo not drawn)           1.0
29  NC(=O)c1ccccc1OCC(=O)Nc1cccc(-c2cccc(-c3nc4ccccc4[nH]3)c2)c1           1.0
30    Cc1ccc2oc3cc(-c4nnn[nH]4)ccc3c(=O)c2c1           0.0
31  CNCc1ccc2nc(-c3coc(Cc4cc(Cl)ccc4OCC(C)C)n3)[nH]c2c1.Cl           0.0

* * *

# Tested on: Plasmodium falciparum
# Assay Notes: GSK_TCMDC: Inhibition of Plasmodium falciparum Dd2 in whole red blood cells, using parasite LDH activity as an index of growth. Test compounds present at 2uM
# Assay type: functional
Inhibition values for the compounds below.
Recorded Metric: Inhibition (%)

>>> df
                                    compound  recorded_metric  reading
 0  Cc1oc(-c2cccc(Oc3ccccc3)c2)nc1CN(Cc1cnn(C)c1)C(C)C       Inhibition       61
 1  O=C(NC1CCN(Cc2cccc(C(F)(F)F)c2)CC1)c1ccc(-c2cccc(Cl)c2)s1.O=C(O)C(F)(F)F       Inhibition       33
 2  O=C(NC(Cc1ccccc1)C(=O)O)c1cc(=O)c2ccccc2o1 (stereo unspecified)       Inhibition       10
 3  CCNc1cc(C)nc(Nc2ccc(NC(=O)c3c(F)cccc3Cl)cc2)n1       Inhibition       89
 4  CCOc1ccc(NC(=O)c2cccc(CN3CCCN(Cc4cccc(O)c4)CC3)c2)cc1.O=C(O)C(F)(F)F       Inhibition       23
 5  CN1CCN(c2ccnc3ccc(NC(=O)Nc4ccc(-c5ccncc5)c5ccccc45)cc23)CC1       Inhibition       84
 6  Cc1nc(C)c(CC(=O)Nc2ccc(-c3cccc(-c4nc5cccc(C)c5[nH]4)c3)cc2)s1       Inhibition       38
 7  O=C(Nc1ccc2ccccc2c1)c1ccc(CN2CCC(Cc3ccccc3)CC2)cc1       Inhibition       10
 8   COc1ccc(CNc2ncnc3c2[nH]c2ccc(F)cc23)cc1       Inhibition       71
 9  O=C(/C=C/c1ccc(Cl)c(Cl)c1)NCCCCCN1CCCN(C(=O)Nc2ccc(Br)cc2)CC1       Inhibition        0
10  COc1ccc(-c2cccc(NC(=O)c3cccs3)c2)cc1CN1CCCN(C)CC1.O=C(O)C(F)(F)F       Inhibition       30
11  Cc1cccc2sc(N(CCCn3ccnc3)C(=O)C=Cc3cccs3)nc12.Cl       Inhibition        9
12  Cl.N=C(N)NN=Cc1c2ccccc2c(Cl)c2cc(Cl)ccc12       Inhibition       28
13  CN1C(=C2SC(=Nc3ccc4ncccc4c3)N(Cc3ccccc3)C2=O)Sc2ccc(Cl)cc21       Inhibition       75
14            CC(=O)c1c(Cc2ccccc2Cl)c[nH]c1C       Inhibition       53
15  CCCN(Cc1nnc(-c2cccs2)o1)C(=O)CSc1nnnn1-c1cc(C)cc(C)c1       Inhibition       71
16  CCCCCCN1CCC(NCc2ccc(C(F)(F)F)cc2)CC1.O=C(O)C(F)(F)F       Inhibition       47
17  O=C(Nc1ccc(O)c(-c2nc3ccccc3[nH]2)c1)c1ccc([N+](=O)[O-])cc1       Inhibition       45
18        N=C(Nc1cccc(Cc2ccccc2)n1)Nc1ncccn1       Inhibition       34
19  CN(C)c1ccc(CN2CCC(CNC(=O)c3cc(-c4ccccc4F)cs3)C2)cc1.O=C(O)C(F)(F)F (stereo unspecified)       Inhibition       33
20  COCCn1c(C)cc(C(=O)CN2C(=O)NC(C)(c3ccc(C(C)(C)C)cc3)C2=O)c1C (stereo unspecified)       Inhibition       96
21  COc1ccc2ncc(F)c([C@@H](O)CN3CCC(NCc4cc(C#N)c5c(c4)CCO5)CC3)c2n1       Inhibition       50
22  CCN(CC)CCCC(C)Nc1c(-c2ccc(OC)cc2)cnc2ccccc12 (stereo unspecified)       Inhibition       38
23  COc1cc2nc(N3CCC(CNC(=O)c4ccc(NC(=O)c5ccc(Cl)cc5)cc4)CC3)nc(N)c2cc1OC       Inhibition      100
24  CN1CC[C@@H](Oc2cc(NC(=O)Nc3ccccc3Br)ccc2Cl)C1       Inhibition        6
25  CCn1c(-c2nonc2N)nc2c(C#CC(C)(C)O)ncc(OCCNCCc3ccc(OC)cc3)c21.O=C(O)C(F)(F)F       Inhibition       44
